The measurements presented in this section are drawn from ChEMBL document CHEMBL2407079.

# experiment: Clearance in rhesus monkey at 1 mg/kg, iv
# Format: ADME, organism-based, Macaca mulatta
# Design: dose 1 mg/kg, route intravenous
# experimental.context: in vivo
measured.quantity: clearance

Would you mind telling me what clearance value was observed for O=C(O)[C@H]1CC[C@@H](Oc2ccc(-c3ccc(-c4nc5ccc(F)cc5[nH]4)cn3)cn2)CC1 ?
12.4 mL/min/kg

---

# experiment: Volume of distribution at steady state in beagle dog at 0.55 mg/kg, iv
# Format: ADME, organism-based, Canis lupus familiaris
# Set-up: dose 0.55 mg/kg, route intravenous
# experimental.context: in vivo, read-out: Vdss
measured.quantity: Vd (L/kg)
Give the value, in units of L/kg, as a plain number.

Would you mind telling me what Vd value was observed for O=C(O)[C@H]1CC[C@@H](Oc2ccc(-c3ccc(-c4nc5ccc(F)cc5[nH]4)cn3)cn2)CC1 ?
0.63
